Test system: up to 32 different microorganisms
testName: in vitro antibacterial activity (MIC), agar dilution on Brain Heart Infusion (BHI) agar with Steers replicator
Type: cell-based
settings: Mycobacterium smegmatis ATCC 114 (code UU); unit assumed
Please go through the items and note down their MIC.

Prompt: For the compound CCC1OC(=O)C(C)C(=O)C(C)C(OC2OC(C)CC(N(C)C)C2O)C(C)(OCC=Cc2ccc3ncccc3c2)CC(C)C(=O)C(C)C2NC(=O)OC12C (stereo not drawn) , report MIC.
Response: 0.78 µg/mL

Prompt: For the compound CCC1OC(=O)C(C)C(=O)C(C)C(OC2OC(C)CC(N(C)C)C2O)C(C)(OCC=Cc2cncc3ccccc23)CC(C)C(=O)C(C)C2NC(=O)OC12C (stereo not drawn) , report MIC.
Response: 0.78 µg/mL

Prompt: For the compound CCCO[C@@]1(C)C[C@@H](C)C(=O)[C@H](C)[C@@H](O)[C@](C)(O)[C@@H](CC)OC(=O)[C@H](C)C(=O)[C@H](C)[C@H]1O[C@@H]1O[C@H](C)C[C@H](N(C)C)[C@H]1O , report MIC.
Response: > 100 µg/mL

Prompt: For the compound CC[C@H]1OC(=O)[C@H](C)C(=O)[C@H](C)[C@@H](O[C@@H]2O[C@H](C)C[C@H](N(C)C)[C@H]2O)[C@@](C)(OCCCc2cnc3ccccc3c2)C[C@@H](C)C2=NCCN3C(=O)O[C@@]1(C)[C@H]3[C@H]2C , report MIC.
Response: 0.78 µg/mL

Prompt: For the compound CCC1OC(=O)C(C)C(=O)C(C)C(OC2OC(C)CC(N(C)C)C2O)C(C)(OCC=Cc2cccc3ncccc23)CC(C)C(=O)C(C)C2NC(=O)OC12C (stereo not drawn) , report MIC.
Response: 0.2 µg/mL

Prompt: For the compound CC[C@H]1OC(=O)[C@H](C)C(=O)[C@H](C)[C@@H](O[C@@H]2O[C@H](C)C[C@H](N(C)C)[C@H]2O)[C@@](C)(OCC=Cc2cnc3ccccc3c2)C[C@@H](C)C(=O)[C@H](C)[C@H]2OC(=O)O[C@@]21C , report MIC.
Response: 0.39 µg/mL

Prompt: For the compound CC[C@H]1OC(=O)[C@H](C)C(=O)[C@H](C)[C@@H](O[C@@H]2O[C@H](C)C[C@H](N(C)C)[C@H]2O)[C@@](C)(OCC=Cc2ccccc2)C[C@@H](C)C(=O)[C@H](C)[C@H]2NC(=O)O[C@@]21C , report MIC.
Response: 0.2 µg/mL

Prompt: For the compound CC[C@H]1OC(=O)[C@H](C)C(=O)[C@H](C)[C@@H](O[C@@H]2O[C@H](C)C[C@H](N(C)C)[C@H]2O)[C@@](C)(OCCCc2ccccc2)C[C@@H](C)C(=O)[C@H](C)[C@@H](O)[C@]1(C)O , report MIC.
Response: 6.2 µg/mL

Prompt: For the compound CC[C@H]1OC(=O)[C@H](C)C(=O)[C@H](C)[C@@H](O[C@@H]2O[C@H](C)C[C@H](N(C)C)[C@H]2O)[C@@](C)(OCCNCc2ccccc2)C[C@@H](C)C(=O)[C@H](C)[C@@H](O)[C@]1(C)O , report MIC.
Response: 6.2 µg/mL

====

System: up to 32 different microorganisms
testName: in vitro antibacterial activity (MIC), agar dilution on Brain Heart Infusion (BHI) agar with Steers replicator
Type: cell-based
settings: Mycobacterium smegmatis ATCC 114 (code UU); unit assumed
measureName: MIC (µg/mL)
Note: unit µg/mL is implicit; provide only the numeric part.

Prompt: For the molecule CC[C@H]1OC(=O)[C@H](C)C(=O)[C@H](C)[C@@H](O[C@@H]2O[C@H](C)C[C@H](N(C)C)[C@H]2O)[C@@](C)(OCC=Cc2ccc(F)cc2)C[C@@H](C)C(=O)[C@H](C)[C@@H](O)[C@]1(C)O [Example 174] , report MIC.
Response: 3.1

Prompt: For the molecule CCC1OC(=O)C(C)C(=O)C(C)C(OC2OC(C)CC(N(C)C)C2OC(C)=O)C(C)(OCC=Cc2cnc3ccccc3c2)CC(C)C(=O)C(C)C2NC(=O)OC12C (centres unmarked) [Example 198] , report MIC.
Response: 0.39

Prompt: For the molecule CC[C@H]1OC(=O)[C@H](C)C(=O)[C@H](C)[C@@H](O[C@@H]2O[C@H](C)C[C@H](N(C)C)[C@H]2O)[C@@](C)(OCCCc2ccccc2)C[C@@H](C)C(=O)[C@H](C)[C@H]2OC(=O)O[C@@]21C [Example 73] , report MIC.
Response: 0.78

Prompt: For the molecule CCC1OC(=O)C(C)C(=O)C(C)C(OC2OC(C)CC(N(C)C)C2O)C(C)(OCC=Cc2cccnc2)CC(C)C(=O)C(C)C2NC(=O)OC12C (centres unmarked) [Example 185, R is —CH2CH═CH-(3-pyridyl)] , report MIC.
Response: 3.1

Prompt: For the molecule C=CCO[C@@]1(C)C[C@@H](C)C(=O)[C@H](C)[C@H]2OC(=O)O[C@]2(C)[C@@H](CC)OC(=O)[C@H](C)C(=O)[C@H](C)[C@H]1O[C@@H]1O[C@H](C)C[C@H](N(C)C)[C@H]1O [Example 71] , report MIC.
Response: 25

Prompt: For the molecule C=CCO[C@@]1(C)C[C@@H](C)C(=O)[C@H](C)[C@H]2N(C)C(=O)O[C@]2(C)[C@@H](CC)OC(=O)[C@H](C)C(=O)[C@H](C)[C@H]1O[C@@H]1O[C@H](C)C[C@H](N(C)C)[C@H]1O [Example 179] , report MIC.
Response: 12.5

Prompt: For the molecule C=CCOC1(C)CC(C)C(=NO)C(C)C(O)C(C)(O)C(CC)OC(=O)C(C)C(=O)C(C)C1OC1OC(C)CC(N(C)C)C1O (centres unmarked) [Example 2] , report MIC.
Response: 25

Prompt: For the molecule CCC1OC(=O)C(C)C(=O)C(C)C(OC2OC(C)CC(N(C)C)C2O)C(C)(OCC=Cc2cnc3ccc(Cl)cc3c2)CC(C)C(=O)C(C)C2NC(=O)OC12C (centres unmarked) [Example 191, R is —CH2CH═CH-(6-chloro-3-quinolyl)] , report MIC.
Response: 0.39
